SUBJECT OF TEST: human IRE1 (hIRE1, IRE1α) (Homo sapiens)
Construct: gene ERN1; aa 465-977, His & GST Tag
Sequence (O75460 465-977): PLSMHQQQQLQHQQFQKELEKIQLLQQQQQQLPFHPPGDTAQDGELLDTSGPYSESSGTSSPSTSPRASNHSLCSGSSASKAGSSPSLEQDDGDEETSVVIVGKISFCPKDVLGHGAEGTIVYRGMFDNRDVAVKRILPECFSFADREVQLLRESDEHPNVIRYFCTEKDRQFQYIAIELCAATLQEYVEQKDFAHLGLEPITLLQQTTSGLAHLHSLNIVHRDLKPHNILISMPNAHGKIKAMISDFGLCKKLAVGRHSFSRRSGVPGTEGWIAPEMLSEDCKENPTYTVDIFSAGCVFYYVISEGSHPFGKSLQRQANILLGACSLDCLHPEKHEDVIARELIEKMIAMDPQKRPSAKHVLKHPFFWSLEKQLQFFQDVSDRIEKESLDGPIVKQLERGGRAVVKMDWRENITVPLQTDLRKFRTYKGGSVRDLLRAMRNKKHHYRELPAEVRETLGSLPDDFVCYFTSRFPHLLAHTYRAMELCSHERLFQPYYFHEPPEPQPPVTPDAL
EXPERIMENT DESCRIPTION: MST displacement of fluorescent Kinase Tracer […] (positive control)
Assay type: binding
RECORDED METRIC: IC50
I'd appreciate it if you wrote the number followed by its unit.

Problem: Return IC50 for the following molecule: Cc1ccc2c(NS(=O)(=O)c3ccccc3Cl)cccc2c1Oc1ncccc1-c1ccnc(N[C@H]2CCCNC2)n1 [KIRA8]
Solution: 73 nM

These data points were gathered from paper PMC10767055.
